Test system: EKVX NSCLC
Assay: NCI tumour cell line growth inhibition, 48 h
REPORTED_METRIC: TGI

MOLECULE | VALUE_REPORTED
COC(=O)C1=Cc2cc(OC)c(OC)c(OC)c2[C@H](c2cc(OC)c(OC)c(OC)c2)C1C(=O)OC (stereo not given in full) | > 100 µM
O=C1C(C(O)(C(F)(F)Cl)C(F)(F)Cl)CCCC1C(O)(C(F)(F)Cl)C(F)(F)Cl (stereo not given) | > 10 µM
Cc1cccc(-c2[nH]ncc2-c2ccc3ncccc3n2)n1 | > 25 µM
O=C(Cn1cc(-c2ccccc2)nn1)NC1CCCCC1 | > 100 µM
O=C1c2cccnc2S(=O)(=O)N1c1ccc(Oc2ccccc2)cc1 | > 100 µM
Cc1nc2c(c(=O)[nH]1)S/C(=C(/C#N)c1nc3ccccc3[nH]1)N2c1ccccc1 | > 100 µM
CC(=O)OC(CN1CCN(c2ccccn2)CC1)Cn1sc2nc(C)cc(C)c2c1=O (stereo not given) | 32.4 µM
COc1ccc(N=C2S/C(=N\C(=Nc3ccccc3)SCc3ccccc3)N(c3ccccc3)C2=Nc2ccc(OC)cc2)cc1 | > 100 µM
CN(C)CCCC1c2ccccc2Oc2ccc(C(F)(F)F)cc21 (stereo not given) | 31.3 µM

Please examine the following record next.
Exercise: Hello, please tell me recorded TGI for this one: `CC1(C)CC(=O)C(/C=N/C(N)=S)=C(O)C1`
Solution: > 100 µM

###

# reported TGI; entries follow
System: SNB-75 CNS
Assay: NCI tumour cell line growth inhibition, 48 h
State just the number; it will be interpreted in µM.

COMPOUND | TGI (µM)
CC(C)(C)n1c(=O)n2n(c1=O)Cc1cccc3cccc(c13)C2 | 66.4

Exercise: Hello, please tell me recorded TGI for this one: `O=c1[nH]nc(Cc2ccc(Cl)cc2)n1/N=C/c1ccco1`
Solution: 49.7

Exercise: Hello, please tell me recorded TGI for this one: COc1cc(C2S/C(=C/c3ccccc3)C(=O)N2c2ccc(NC(C)=O)cc2)cc(OC)c1OC (stereo not given)
Solution: 37.5

Exercise: Hello, please tell me recorded TGI for this one: CCCCCCCC/C=C/CCCCCCCC1=NC(C)(C)CN1CC(C)O (stereo not given)
Solution: 4.23

###

System: NCI/ADR-RES ovarian
Experiment: NCI tumour cell line growth inhibition, 48 h
REPORTED_METRIC: TGI (µM)
State just the number; it will be interpreted in µM.

Examples with their reported TGI follow.
MOLECULE | REPORTED_METRIC | VALUE_REPORTED
CC(C)(C)n1c(=O)n2n(c1=O)Cc1cccc3cccc(c13)C2 | TGI | 37.1
COc1cc(C2S/C(=C/c3ccccc3)C(=O)N2c2ccc(NC(C)=O)cc2)cc(OC)c1OC (stereo unspecified) | TGI | 76.2

Please examine the following record next.
Exercise: Hello, please tell me recorded TGI for this one: `COC1=CC(c2ccc[nH]2)=N/C1=C\c1[nH]c(C)c(CC(=O)OCc2ccccc2)c1CCC(=O)OCc1ccccc1`
Solution: 3.37

###

Tested on: SW-620 colon
Experiment: NCI tumour cell line growth inhibition, 48 h; in the data active = GI50 below about 0.43 µM; inactive = the rest
Form entry, call: pick from t (active), f (inactive)

Here are 3 compounds together with their reported answers.
COMPOUND | ANSWER_LABEL
Cc1cc(Cl)cc2c(N=Nc3ccc(S(N)(=O)=O)cc3)c(O)[nH]c12 | f
COc1ccc2sc3cccc(NCCN(C)C)c3c(=O)c2c1 | f
NCCCNc1nc2ccccc2c2c(=O)c3cc(F)cc(F)c3sc12 | f

Exercise: What call does the record list for CCOC(=O)C1=C(C)N=c2s/c(=C\c3ccccc3O)c(=O)n2C1c1ccc(OC)c2ccccc12 (stereo unspecified) ?
Solution: f

Exercise: What call does the record list for CCCCCCCC/C=C/CCCCCCCC1=NC(C)(C)CN1CC(C)O (stereo unspecified) ?
Solution: f

Exercise: What call does the record list for `NC1=CC(=O)c2cccnc2C1=O` ?
Solution: f
